- System: Mycobacterium tuberculosis
- ASSAY REMARKS: Cornell - Phenotypic assay to identify agents that inhibit growth of Mycobacterium tuberculosis
- Format: functional
- Set-up: scale not given: direction of the effect not stated beside the values
- EXPERIMENTAL PARAMETERS: 10 mM as filed; unlikely as a test dose
Out of some 53,000 compounds screened, about 900 (1.7%) showed an effect of 50% or more. The list comes from a sample in which strong results are over-represented; it also holds close analogues and randomly drawn compounds.
READOUT KIND: Percent Effect (%)
Response body: numeric value in %, unit text excluded.

Problem: Supply recorded Percent Effect for COCCNC(=O)c1c(-n2cnnn2)sc2c1CCCC2 here.
Solution: 24.57

Problem: Supply recorded Percent Effect for CC(C)(C#N)C(=O)Nc1nccn1Cc1ccc(Br)cc1 here.
Solution: 15.16

Problem: Supply recorded Percent Effect for CCOCC(=O)Nc1ncn(Cc2cccc(Br)c2)n1 here.
Solution: -12.98

Problem: Supply recorded Percent Effect for CCN(C)C(=O)c1cc(-c2cn(C(C)C)cn2)n2ccccc12 here.
Solution: -58.24

Problem: Supply recorded Percent Effect for CSCCCN1CCN(c2ccc(Cl)cn2)CC1 here.
Solution: 62.54

Problem: Supply recorded Percent Effect for CCN(C)C(=O)c1cc(-c2ccn(C(C)C)n2)n2ccccc12 here.
Solution: 68.36

Problem: Supply recorded Percent Effect for CCOCC(=O)Nc1nccn1Cc1ccc(Br)cc1 here.
Solution: 58.9

Problem: Supply recorded Percent Effect for Cc1cc(=O)n2ncnc2n1CC(O)c1cc(F)ccc1F (stereo unspecified) here.
Solution: -70.76

Problem: Supply recorded Percent Effect for Cn1ccc2c(NC(=O)Cn3ncc4c(c3=O)CCCC4)cccc21 here.
Solution: 50.09

Problem: Supply recorded Percent Effect for COCc1nc(CNc2cccc(-c3nc(C)c(C)o3)c2)cs1 here.
Solution: 46.4

Problem: Supply recorded Percent Effect for CC(C)n1ccc(-c2cc(C(=O)NC3CC3)c3ccccn23)n1 here.
Solution: -20.13

Problem: Supply recorded Percent Effect for Cc1ccc(CN(CC(=O)NC2CCOCC2)c2ccc(F)cc2)o1 here.
Solution: 92.31

Problem: Supply recorded Percent Effect for Cc1nn(C)cc1C1CC(=O)Nc2c1cnn2C (stereo unspecified) here.
Solution: 30.3

Problem: Supply recorded Percent Effect for Cn1ccc2c(NC(=O)Cn3ncc4c(c3=O)CCCCC4)cccc21 here.
Solution: 7.683

Problem: Supply recorded Percent Effect for Cc1ncsc1CNc1cccc(OCCN2CCCC2)c1 here.
Solution: 16.77

Problem: Supply recorded Percent Effect for O=C(CN(CC(O)c1ccc(F)cc1)C1CC1)NC1CCOCC1 (stereo unspecified) here.
Solution: 2.353

====

- Tested on: Mycobacterium tuberculosis
- ASSAY REMARKS: Cornell - Phenotypic assay to identify agents that inhibit growth of Mycobacterium tuberculosis
- Assay type: functional
- Design: scale not given: direction of the effect not stated beside the values
- EXPERIMENTAL PARAMETERS: 10 mM as filed; unlikely as a test dose
The campaign covered roughly 53,000 compounds. About 900 (1.7%) showed an effect of 50% or more. Many of the other results were omitted from the sample, so strong results are more common in it than they were.
READOUT KIND: Percent Effect (%)
Response body: numeric value in %, unit text excluded.

Problem: Supply recorded Percent Effect for Cc1ccoc1-c1nnc(CNCCn2cccn2)o1 here.
Solution: -13.89

Problem: Supply recorded Percent Effect for NC(=O)c1ccc(C(=O)N(Cc2ccc(O)cc2)CC2CC2)cc1 here.
Solution: -5.401

Problem: Supply recorded Percent Effect for CC(Cn1cccn1)NCc1nc(-c2cccs2)no1 (centres undefined) here.
Solution: 28.55

Problem: Supply recorded Percent Effect for OCCCN(CCn1cncn1)c1ccccc1 here.
Solution: -44.33

Problem: Supply recorded Percent Effect for Cc1cc(C)n(C2=NC(NCCC(C)C)c3c(sc4c3CCCC4)N2)n1 (centres undefined) here.
Solution: 1.366

Problem: Supply recorded Percent Effect for CCN(CC1CCCO1)C(=O)Nc1ccc(OC)c(C)c1 (centres undefined) here.
Solution: 29.95

Problem: Supply recorded Percent Effect for O=C(c1ncccn1)N1C[C@@H]2CC[C@H](Oc3cccc(F)c3)[C@@H]2C1 here.
Solution: 15.44

Problem: Supply recorded Percent Effect for COc1ccc(C(=O)NCCNC(=O)c2scnc2Cl)cc1 here.
Solution: -54.01

Problem: Supply recorded Percent Effect for COCCNc1nc(-n2nc(C)cc2C)nc2sc3c(c12)CCCC3 here.
Solution: -12.48

Problem: Supply recorded Percent Effect for CCc1sc(-c2nnc(CNC(C)Cn3cccn3)o2)cc1C (centres undefined) here.
Solution: 50.91

Problem: Supply recorded Percent Effect for NC(=O)NC(=O)CNC1(c2ccc(Cl)cc2)CCCC1 here.
Solution: 4.44

Problem: Supply recorded Percent Effect for O=C(c1ccno1)N1CCn2cc(CN3CCCCC3)nc2C1 here.
Solution: 6.548

Problem: Supply recorded Percent Effect for CCN(CC1CCCO1)C(=O)Nc1cc(OC)c(OC)cc1C (centres undefined) here.
Solution: 69.91

Problem: Supply recorded Percent Effect for COc1cc(C2CC(=O)Oc3cc(C)[nH]c(=O)c32)ccc1O (centres undefined) here.
Solution: 15.79

Problem: Supply recorded Percent Effect for N#Cc1cccc(OCCN2CCNC(=O)C2c2cccs2)c1 (centres undefined) here.
Solution: 15.41

Problem: Supply recorded Percent Effect for CN1CC2(CCCN(Cc3cccc(Oc4ccccc4)c3)C2)OC1=O (centres undefined) here.
Solution: 2.197

Problem: Supply recorded Percent Effect for Cc1ccc(-c2nnc(CNCCn3cc(C)cn3)o2)cc1 here.
Solution: 51.67

Problem: Supply recorded Percent Effect for CCc1sc(-c2nnc(CNCCn3cc(C)cn3)o2)cc1C here.
Solution: 69.26

Problem: Supply recorded Percent Effect for Oc1ccc(N(CCc2ccccc2)CCn2cncn2)cc1 here.
Solution: 107

====

Task for the reader: assign each of the following molecules its reported Percent Effect.
- Tested on: Mycobacterium tuberculosis
- ASSAY REMARKS: Cornell - Phenotypic assay to identify agents that inhibit growth of Mycobacterium tuberculosis
- Format: functional
- Parameters: scale not given: direction of the effect not stated beside the values
- EXPERIMENTAL PARAMETERS: 10 mM as filed; unlikely as a test dose
Out of some 53,000 compounds screened, about 900 (1.7%) showed an effect of 50% or more. Shown is part of a subset that was picked to be rich in strong results.
Response body: numeric value in %, unit text excluded.

Problem: Supply recorded Percent Effect for O=C(c1cc(COc2ccc3c(c2)OCO3)[nH]n1)N1CCCCO1 here.
Solution: 15.85

Problem: Supply recorded Percent Effect for CCCc1cc(=O)n(CC(=O)NCCOC)c(-n2nc(C)cc2C)n1 here.
Solution: 61.91

Problem: Supply recorded Percent Effect for O=C(c1cc(COc2ccc3c(c2)OCO3)[nH]n1)N1CCSCC1 here.
Solution: 102

====

- Test system: Mycobacterium tuberculosis
- ASSAY REMARKS: Cornell - Phenotypic assay to identify agents that inhibit growth of Mycobacterium tuberculosis
- Type: functional
- Design: scale not given: direction of the effect not stated beside the values
- EXPERIMENTAL PARAMETERS: 10 mM as filed; unlikely as a test dose
The campaign covered roughly 53,000 compounds. About 900 (1.7%) showed an effect of 50% or more. For the sample, strong results were picked, then their nearest neighbours and some compounds at random.
READOUT KIND: Percent Effect (%)
Response body: numeric value in %, unit text excluded.

Problem: Supply recorded Percent Effect for Cc1cnc(N2CCc3onc(COc4cccnc4)c3C2)nc1 here.
Solution: -20.46

Problem: Supply recorded Percent Effect for CN1CCC(c2[nH]ncc2S(C)(=O)=O)CC1 here.
Solution: 6.792

Problem: Supply recorded Percent Effect for Cn1ccnc1SCC(=O)NCc1ccc2c(c1)CCC(=O)N2 here.
Solution: -11.99

Problem: Supply recorded Percent Effect for CC(C)(C)NC(=O)N1CCCn2nc(C(=O)Nc3ccccc3)cc2C1 here.
Solution: 16.42

Problem: Supply recorded Percent Effect for O=C(CCc1ccsc1)Nc1cccnc1N1CCCC1 here.
Solution: 8.029

Problem: Supply recorded Percent Effect for COc1cccc(CC(C)NC(=O)NC(C)C)c1 (centres undefined) here.
Solution: 44.88

Problem: Supply recorded Percent Effect for COCCN(Cc1ccco1)Cc1nc(-c2ccccc2)no1 here.
Solution: -9.832

Problem: Supply recorded Percent Effect for COCC1COCCC12CCN(C(=O)COc1ccccc1C)CC2 (centres undefined) here.
Solution: -10.81

Problem: Supply recorded Percent Effect for CCNC(=O)[C@@H]1C[C@H](NC(=O)Cn2ccnc2)CN1Cc1ccsc1 here.
Solution: 104.2

Problem: Supply recorded Percent Effect for O=C(O)C(F)(F)F.O=C(O)C(F)(F)F.O=C(O)C(F)(F)F.c1cnc(NC[C@H]2OC[C@@H]3CCN(Cc4cccnc4)C[C@@H]32)nc1 here.
Solution: 43.57

Problem: Supply recorded Percent Effect for Cl.Cl.Clc1cccc(C[C@@H]2NCCC[C@@H]2Nc2cccc(Cl)c2)c1 here.
Solution: 108.9

Problem: Supply recorded Percent Effect for CC(=O)N1CCC2(C1)c1ccccc1S(=O)(=O)N2Cc1ccccc1 (centres undefined) here.
Solution: -2.139

Problem: Supply recorded Percent Effect for CCC(NC(=O)Nc1ccc(OC)c(C)c1)c1ccncc1 (centres undefined) here.
Solution: 89.35

Problem: Supply recorded Percent Effect for O=C(C[S+]([O-])Cc1cccc(Cl)c1)NC1CCCC1 (centres undefined) here.
Solution: 37.46

Problem: Supply recorded Percent Effect for CCCn1nnnc1COc1ccc(C(=O)OC)cc1OC here.
Solution: 7.789

Problem: Supply recorded Percent Effect for O=C(Cc1cccc(Cl)c1)N[C@@H]1CCNC[C@H]1O here.
Solution: 2.906

Problem: Supply recorded Percent Effect for O=C(c1ccccn1)N1CCC(Oc2cccnc2)CC1 here.
Solution: -17.68

Problem: Supply recorded Percent Effect for Clc1ccc(C2(CNC3=NCCN3)CC2)cc1.I here.
Solution: -15.81

Problem: Supply recorded Percent Effect for COC[C@@H]1CCC[C@]12CN(CCc1ccccc1)CCO2.O=C(O)C(F)(F)F here.
Solution: -4.553

Problem: Supply recorded Percent Effect for CN(C)CCN1C(=O)CCC12CCCN(C(=O)c1cccnc1)CC2.O=C(O)C(F)(F)F.O=C(O)C(F)(F)F (centres undefined) here.
Solution: 28.27

Problem: Supply recorded Percent Effect for O=C(c1cc(C2CC2)on1)N1CCC(Oc2ncccc2Br)CC1 here.
Solution: 83.65

Problem: Supply recorded Percent Effect for COc1ccc(CNCCn2c(C)nc3ccccc32)cc1O here.
Solution: -17.9

Problem: Supply recorded Percent Effect for CCC1CNCc2cc3c(C)ccc(C)c3nc2O1 (centres undefined) here.
Solution: 61.63

Problem: Supply recorded Percent Effect for CCNC(=O)[C@@H]1C[C@@H](NC(=O)Cc2ccncc2)CN1Cc1ccsc1 here.
Solution: 31.97

Problem: Supply recorded Percent Effect for O=C(CC1CCc2ccccc21)N1CCC(C(=O)O)(n2ccnc2)CC1 (centres undefined) here.
Solution: -2.815

Problem: Supply recorded Percent Effect for COc1cccc(CC(C)NC(=O)NCc2ccn(C)c2)c1 (centres undefined) here.
Solution: 85.29

Problem: Supply recorded Percent Effect for Cl.c1ccc(CCNc2cccc(C3CCCNC3)n2)cc1 (centres undefined) here.
Solution: 12.44

Problem: Supply recorded Percent Effect for Cc1ncc(C(=O)NCCNc2ncccn2)s1 here.
Solution: -0.6021

Problem: Supply recorded Percent Effect for O=C(c1cc(C2CC2)on1)N1CCC(Oc2ncccc2Cl)CC1 here.
Solution: 82.03

Problem: Supply recorded Percent Effect for O=C(NCCc1cccc(Cl)c1)C1CCOCC1 here.
Solution: 10.9

Problem: Supply recorded Percent Effect for Cc1ccc(CN2CC[C@@H]3[C@@H]2CCN3C(=O)Cc2cccs2)o1.O=C(O)C(F)(F)F here.
Solution: 2.395

Problem: Supply recorded Percent Effect for COc1ccc(NC(=O)Cn2c(=O)nc(N)c3cc(C)sc32)cc1 here.
Solution: 0.3474

Problem: Supply recorded Percent Effect for O=C(Cc1cccnc1)N1CCCC(n2cncn2)C1 (centres undefined) here.
Solution: -17.88

Problem: Supply recorded Percent Effect for COc1cccc(CNCc2cccc(Cl)c2)c1O here.
Solution: 2.888

Problem: Supply recorded Percent Effect for Cc1cc(NC(=O)NCc2nccn2C)ccc1OC(C)C here.
Solution: 35.97

Problem: Supply recorded Percent Effect for OCc1ccc(CN(CCCn2ccnc2)Cc2cccnc2)o1 here.
Solution: 33.2

Problem: Supply recorded Percent Effect for Cc1nc(CNCc2cccc(OC34CCCN(CC3)C4)c2)n[nH]1 (centres undefined) here.
Solution: 22.09

Problem: Supply recorded Percent Effect for Cc1nc(Cn2c3c(ccc2=O)CC(NC(N)=O)CC3)cs1 (centres undefined) here.
Solution: -11.16

Problem: Supply recorded Percent Effect for Cc1nccc(CN2Cc3nccn3CC2c2ccccc2)n1 (centres undefined) here.
Solution: -4.199

Problem: Supply recorded Percent Effect for CCOC(=O)[C@H]1CNC[C@H]1C(=O)OCC.Cl here.
Solution: 36.02

Problem: Supply recorded Percent Effect for CN(C)c1nc2n(c(=O)n1)CCN2C(=O)Nc1ccc(Cl)c(Cl)c1 here.
Solution: 104.9

Problem: Supply recorded Percent Effect for CS(=O)(=O)N1CCCC1C(=O)Nc1cnc2n1CCCC2 (centres undefined) here.
Solution: 9.053

Problem: Supply recorded Percent Effect for O=C(NCc1ccc(OCC2CC2)nc1)C1COc2ccccc2O1 (centres undefined) here.
Solution: 16.73

Problem: Supply recorded Percent Effect for COCCN(Cc1ccco1)Cc1nc(-c2ccsc2)no1 here.
Solution: -23.17
